- protocol.summary: P. aeruginosa biofilm formation inhibitors, primary screen, PAO1 strain, BacTiter-Glo luminescence, LB-PBS (AID 1144)
- measurement.setup: 12 h, higher = more signal
Active and inactive are the calls of the source. The rule behind the calls is not given here.
assay.readout: z-score

Example entries begin here.
{"columns": ["compound", "z-score"],
 "data": [
  ["C=C/C=C/[C@@H]1C(=C)CN([C@@H](Cc2ccccc2)C(=O)OC)[C@H]1[C@@H](O)Cc1ccccc1", "-0.428 (inactive)"],
  ["O=C1C2C=CC(C(O)c3ccco3)N(Nc3ccccc3)C2C(=O)N1c1ccccc1 (stereo not given)", "-0.497 (inactive)"],
  ["C=C(C)C1CCC(C(O)C2C=CC3C(=O)N(C)C(=O)C3N2Nc2cc(OC)c(OC)c(OC)c2)CC1 (stereo not given)", "0.253 (inactive)"],
  ["[N-]=[N+]=NCc1ccccc1[C@@H]1OC(c2ccc(OCCCO)cc2)=N[C@]1(Cc1ccccc1N=[N+]=[N-])C(=O)NCCN1CCOCC1", "1.07 (inactive)"],
  ["COC(=O)c1c2oc(c1C(=O)OC)C(=O)N1CCC[C@H]1Cn1nncc1CN(Cc1ccccc1)C(=O)N[C@H](CO)CC2", "-0.294 (inactive)"]
]}

Identify measured z-score associated with COCCCNC(=O)[C@@]1(Sc2ccc(C)cc2)CC(=O)N(Cc2ccccc2Cl)[C@@H]1c1ccc(CO)cc1I
0.241 (inactive)

Fill in reported z-score for this entry: CCCNC(=O)[C@@]1(Sc2ccc(C)cc2)CC(=O)N(C2CCCCC2)[C@@H]1c1ccc(CO)cc1I
0.687 (inactive)

---

- Tested on: glycogen synthase kinase-3 (GSK3A per assay name; protocol says GSK3B)
- protocol.summary: GSK3 binders on small-molecule microarrays, primary screen, biochemical, small-molecule microarray, 635 nm fluorescence, GSK3A (AID 1103); note: the record names both GSK3A and GSK3B
- measurement.setup: small-molecule microarray binding, fluorescence 635 nm; higher = more signal
Record 1 (yes) whenever composite z-score is at 0.9 or higher; record 0 (no) when lower.

Previously resolved entries follow.
{"columns": ["molecule", "label"],
 "data": [
  ["COC(=O)[C@@]1(Cc2ccc(OC)cc2)[C@H]2c3cc(C(=O)N4CCCC4)n(Cc4cc(C)n(C)n4)c3C[C@H]2CN1C(=O)c1ccccc1", "0 (no)"],
  ["COc1ccc([Si](C)(C)[C@@H]2[C@@H](CC(=O)N3Cc4ccccc4C[C@H]3CO)O[C@]3(C(=O)N(Cc4ccc(N5CCC5=O)cc4)c4ccccc43)[C@H]2C)cc1", "0 (no)"],
  ["CC(C)CCC[C@@H](C)[C@H]1CC[C@@]2(C)C3=C(CC[C@]12C)[C@@]1(C)CC[C@H](OC(=O)c2ccccc2)C(C)(C)C1CC3 (some centres undefined)", "0 (no)"],
  ["COc1ccc([Si](C)(C)[C@H]2[C@H](CC(=O)N3CCC[C@H]3CO)O[C@@]3(C(=O)N(Cc4ccc(N5CCC5=O)cc4)c4ccccc43)[C@@H]2C)cc1", "1 (yes)"],
  ["C#C[C@@H](CC)O[Si](C#CCCCC#N)(C(C)C)C(C)C", "0 (no)"],
  ["CC(C)(C)OC(=O)CC[C@]1(C(=O)N2CCCCC2)COC(c2ccc(OCCCO)cc2)=N1", "1 (yes)"],
  ["C=CCNC(=O)[C@H]1[C@@H]2C(=O)O[C@@H](c3ccccc3)[C@@H](c3ccccc3)N2[C@@H](c2ccc(OCCO)cc2)[C@]12C(=O)Nc1ccc(C#CCNC(N)=O)cc12", "0 (no)"],
  ["C=C(CCCC)C(=O)CC[C@H](OC(C)=O)c1ccc(OCCO)cc1", "0 (no)"]
]}

Kindly determine if composite z-score recorded for O=C1[C@@H]2[C@@H](CC(COc3ccccc3)=C3[C@@H](CCc4ccccc4)OB(O)C[C@@H]32)C(=O)N1Cc1ccccc1 is above or exactly 0.9.
0 (no)

Determine whether measured composite z-score meets or exceeds 0.9 for [N-]=[N+]=Nc1ccccc1C[C@]1(C(=O)O)N=C(c2ccc(OCCCO)cc2)O[C@H]1c1ccccc1
0 (no)

Entry C=C(/C(=C/C[C@H](OC(=O)c1ccncc1)c1cccc(OCCO)c1)c1cnc2ccccc2c1)C(C)C : is its composite z-score no less than 0.9?
1 (yes)

Can COC(=O)C(CC#Cc1ccc2c(c1)[C@]1(C(=O)N2)[C@H](c2ccc(OCCO)cc2)N2[C@H](c3ccccc3)[C@H](c3ccccc3)OC(=O)[C@H]2[C@@H]1C(=O)N1CCN(c2ncccn2)CC1)C(=O)OC be said to have composite z-score at or above 0.9?
1 (yes)

Determine whether this molecule has composite z-score no lower than 0.9: Cc1ccc(S[C@]2(C(=O)NCc3ccccc3)CC(=O)N(Cc3cc(C(F)(F)F)cc(C(F)(F)F)c3)[C@@H]2c2ccc(CO)cc2I)cc1
0 (no)

hey, is composite z-score for this one >= 0.9? O=C(N1CCOCC1)[C@@]1(CCS(=O)(=O)c2ccccc2)N=C(c2ccc(OCCCO)cc2)O[C@H]1c1ccccc1
1 (yes)
